Values from PubChem BioAssay AID1159580

Assay: chemical genetic growth profiling, strain panel (AID 1159580);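 note: tested at 20 µM; growth read once vehicle control cultures reached saturation at 30 °C; 1 = growth at the plate median or of vehicle wells; lower values mean less growth of the strain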
Conditions: S. cerevisiae deletion strains, growth OD, locus YDR297W, strain sur2, active compounds read low
Hit rate of the full screen: of about 5,500 compounds, about 2,000 (36%) were called active. Another 18% or so got no clear call; they are omitted. This is one part of the list.
READOUT NAME: normalized growth
Response field accepts a number only; no unit should be typed.

Worked cases, normalized growth given:
q: Could you tell me which normalized growth is on file for Oc1ccc2c(c1)O[C@H](c1ccc(O)c(O)c1)[C@@H](O)C2 ?
a: 1.03

q: Could you tell me which normalized growth is on file for COC(=O)C[C@H]1C2(C)CC34OC5(C)O[C@@]6([C@H](OC(C)=O)C(OC(C)=O)[C@]7(C)C(/C(=C(/O)C(C)C)C(=O)O[C@H]7c7ccoc7)[C@@]6(O5)[C@H](OC(C)=O)[C@@]3(O)C2OC(=O)C(C)C)[C@]14C (stereo not given in full) ?
a: 1.02

Next:
q: Could you tell me which normalized growth is on file for CCC(C)C(=O)O[C@@H]1C[C@@]2(C)[C@H](c3ccoc3)OC(=O)CC23OC2(C)O[C@]14[C@]1(C)[C@@H](CC(=O)OC)C5(C)CC1(O)[C@](O)(C5OC(=O)C1(C)OC1C)[C@@H](OC(C)=O)[C@]34O2 (stereo not given in full) ?
a: 0.995

q: Could you tell me which normalized growth is on file for Cc1ccc(S(=O)(=O)NC(=O)NN2CCCCCC2)cc1 ?
a: 1

q: Could you tell me which normalized growth is on file for c1ccc2c(c1)sc1ccccc12 ?
a: 0.842

q: Could you tell me which normalized growth is on file for COc1ccc2c(c1)OC/C(=C/c1ccc(OC)c(OC)c1)C2=O ?
a: 0.943

q: Could you tell me which normalized growth is on file for CN(C)CCN(Cc1ccccc1)c1ccccn1 ?
a: 1.02

q: Could you tell me which normalized growth is on file for COc1ccc([C@H]2Oc3c(I)c(OC)cc(OC)c3C[C@@H]2O)cc1OC ?
a: 1.01

q: Could you tell me which normalized growth is on file for CCCCNC(=O)NS(=O)(=O)c1ccc(C)cc1 ?
a: 1.01

q: Could you tell me which normalized growth is on file for Oc1cc(O)c2c(c1)O[C@H](c1ccc(O)c(O)c1)[C@@H](O)C2 ?
a: 1.01

----------
Assay: chemical genetic growth profiling, strain panel (AID 1159580);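 note: tested at 20 µM; growth read once vehicle control cultures reached saturation at 30 °C; 1 = growth at the plate median or of vehicle wells; lower values mean less growth of the strain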
Settings: S. cerevisiae deletion strains, growth OD, locus YKR001C, strain vps1, active compounds read low
Among all 5,500 compounds or so, about 2,000 (36%) were called active. About 18% were inconclusive and are not listed. Some of the results follow.
READOUT NAME: normalized growth

Worked cases, normalized growth given:
q: Could you tell me which normalized growth is on file for COc1cc(OC)c2c(c1)O[C@H](c1cc(OC)c(OC)c(OC)c1)[C@H](OC(=O)c1cc(OC)c(OC)c(OC)c1)C2 ?
a: 0.99 (inactive)

q: Could you tell me which normalized growth is on file for CC(C)NCC(O)COc1cccc2[nH]ccc12 (stereo unspecified) ?
a: 0.988 (inactive)

q: Could you tell me which normalized growth is on file for COc1ccc(-c2coc3cc(O)ccc3c2=O)c(OC)c1 ?
a: 0.973 (inactive)

Next:
q: Could you tell me which normalized growth is on file for COC(=O)/C=C/C(C)=C/C=C/C(C)=C/C=C/C=C(C)/C=C/C=C(C)/C=C/C(=O)O ?
a: 1.01 (inactive)

q: Could you tell me which normalized growth is on file for COC(=O)c1cc(=O)c(O)c2c(O)c(O)ccc2c1 ?
a: 0.764 (active)

q: Could you tell me which normalized growth is on file for Cn1c(=O)c2c(ncn2CC(O)CO)n(C)c1=O (stereo unspecified) ?
a: 0.975 (inactive)

q: Could you tell me which normalized growth is on file for CC[C@@]1(O)C[C@H](O[C@H]2C[C@H](N(C)C)[C@H](O)[C@H](C)O2)c2c(cc3c(c2O)C(=O)c2c(O)cccc2C3=O)[C@H]1C(=O)OC ?
a: 0.639 (active)

q: Could you tell me which normalized growth is on file for CCC(C)C(=O)OC1CC2(C)C(c3ccoc3)OC(=O)CC23OC2(C)OC34C(OC(=O)C(C)C)C3(O)C(OC(=O)C5(C)OC5C)C5(C)CC3(O)C(C)(C5C(=O)OC)C14O2 (stereo unspecified) ?
a: 1.01 (inactive)

q: Could you tell me which normalized growth is on file for CC(=O)S[C@@H]1CC2=CC(=O)CC[C@]2(C)[C@H]2CC[C@@]3(C)[C@@H](CC[C@@]34CCC(=O)O4)C12 (stereo partly specified) ?
a: 1.03 (inactive)

q: Could you tell me which normalized growth is on file for CCC1(O)CC(OC2CC(N(C)C)C(OC3CC(O)C(OC4CCC(=O)C(C)O4)C(C)O3)C(C)O2)c2c(cc3c(c2O)C(=O)c2c(O)cccc2C3=O)C1C(=O)OC (stereo unspecified) ?
a: 1.01 (inactive)
